Target Or Test System: SGK3 (Homo sapiens, UniProt Q96BR1)
Sequence (Q96BR1 whole entry): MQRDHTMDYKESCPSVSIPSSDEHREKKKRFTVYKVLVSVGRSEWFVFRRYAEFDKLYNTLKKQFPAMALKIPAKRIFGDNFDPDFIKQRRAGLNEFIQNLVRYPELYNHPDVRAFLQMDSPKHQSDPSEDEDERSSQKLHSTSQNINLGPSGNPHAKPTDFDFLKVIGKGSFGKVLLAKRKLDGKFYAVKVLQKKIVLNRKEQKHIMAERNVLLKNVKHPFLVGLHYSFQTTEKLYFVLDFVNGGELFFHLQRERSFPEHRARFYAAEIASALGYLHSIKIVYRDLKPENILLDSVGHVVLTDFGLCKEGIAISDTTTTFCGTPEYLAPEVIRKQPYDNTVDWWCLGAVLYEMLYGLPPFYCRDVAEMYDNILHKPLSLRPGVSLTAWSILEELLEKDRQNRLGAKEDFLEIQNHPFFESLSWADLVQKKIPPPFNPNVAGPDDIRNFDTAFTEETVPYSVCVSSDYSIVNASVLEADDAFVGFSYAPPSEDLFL
Experiment Description: IC50 on recombinant SGK3
Type: biochemical
Condition Parameters: recombinant kinase
Protocol: The result for each kinase is presented as a mean kinase activity of the reaction taken in triplicate relative to a control reaction where the inhibitors were omitted. […] SGK3 was immunoprecipitated from cell lysates and subjected to in vitro kinase assay by measuring phosphorylation of the Crosstide substrate peptide in the presence of 0.1 mM [γ‐^32P]ATP in a 30 min 30°C reaction (upper panel). Kinase reactions are presented as means ± SD for triplicate reaction. Appendix Figure S1. […]
pIC50: −log10 of the molar value.

[
  {
    "Compound": "Nc1n[nH]c2nc(-c3ccc(NS(=O)(=O)c4cc(Cl)ccc4Cl)cc3)cnc12 [14h]",
    "Target Or Test System": "SGK3 (Homo sapiens, UniProt Q96BR1)",
    "pIC50": 8.40
  }
]
